- protocolDetails: xn = mol fraction of the nth substance listed
- measurementSetup: 318.15 K, x1 = 0.95
readoutKind: surface tension liquid-gas (mN/m)

molecule | dataValue
CCCCCCCC(=O)OCC [ethyl octanoate] + CCO | 24.6
CC(=O)OCCC(C)C [3-methylbutyl ethanoate] + CCO | 22.3
CCOC(=O)Cc1ccccc1 [ethyl phenylacetate] + CCO | 32
CCOC(=O)c1ccccc1 [ethyl benzoate] + CCO | 31.8
CCCC(=O)OCCC(C)C [3-methylbutyl butanoate] + CCO | 23
CCCCCC(=O)OCC [ethyl hexanoate] + CCO | 23.5

====

- protocolDetails: refractive index (Na D-line) (dimensionless); xn = mol fraction of the nth substance listed
- measurementSetup: 318.15 K; 100.5 kPa; Liquid; Standard Abbe refractometry; x1 = 0.25
readoutKind: refractive index

compound | refractive index
CCOC(=O)Cc1ccccc1 [ethyl phenylacetate] + CCO | 1.41597
CCCCCC(=O)OCC [ethyl hexanoate] + CCO | 1.37274
CCOC(=O)c1ccccc1 [ethyl benzoate] + CCO | 1.41678
CCCC(=O)OCCC(C)C [3-methylbutyl butanoate] + CCO | 1.37533
CCCCCCCC(=O)OCC [ethyl octanoate] + CCO | 1.38054
CC(=O)OCCC(C)C [3-methylbutyl ethanoate] + CCO | 1.36821
